Test system: HEK-293T
procedure_details: Multiplex assay against HEK293T
Type: toxicity, cell-based
recorded_conditions: human, 48 h, 1 µM, compound concentration 1 uM, replicate 2
Reported Population Healthy Nuclei (%) values for the following compounds.
Just the number in %, nothing appended.

Known results for compounds:
compound	tested_on	readout_value
O=C(Cc1ccc(-c2ccc(OCCN3CCOCC3)cc2)cn1)NCc1ccccc1	HEK-293T	43
CCCS(=O)(=O)c1nc(NC2CC2)cc(-c2ccc3c(ccn3C3CC(C)(C)NC(C)(C)C3)c2)n1	HEK-293T	61
Cl.O=c1c2cccn2c2ccccc2n1CCCN1CCC(c2ccc(Cl)cc2)CC1	HEK-293T	70

Prompt: Give the measured Population Healthy Nuclei (%) of Cc1cc(C)c(S(=O)(=O)N(Cc2ccc(-c3cccc(S(C)(=O)=O)c3)cc2)Cc2ccc(C(F)(F)F)o2)c(C)c1 .
Response: 81

---

Test system: HEK-293T
procedure_details: Multiplex assay against HEK293T
Assay type: toxicity, cell-based
recorded_conditions: human, 48 h, 1 µM, compound concentration 1 uM, replicate 2
metric: Population Normal (%)

A selection of reference data follows.
compound	Population Normal (%)
CCN1CCN(Cc2ccc(Nc3ncc(F)c(-c4cc(F)c5nc(C)n(C(C)C)c5c4)n3)nc2)CC1.CS(=O)(=O)O	93%
CCOc1cc(C(=O)N2CCC(N3CCN(C)CC3)CC2)ccc1Nc1ncc2c(n1)N(C1CCCC1)c1ccccc1C(=O)N2C	94%
Cl.O=c1c2cccn2c2ccccc2n1CCCN1CCC(c2ccc(Cl)cc2)CC1	94%
CN1CCC(=C2c3ccccc3CC(=O)c3sccc32)CC1.O=C(O)/C=C/C(=O)O [KETOTIFEN FUMARATE]	95%

Prompt: Look up Population Normal (%): CN1C2CCC1CC(OC(c1ccc(F)cc1)c1ccc(F)cc1)C2.Cl (stereo unspecified)
Response: 97%

Prompt: If you can, please state the reported Population Normal (%) value of CN(C)C(=O)C(CCN1CCC(O)(c2ccc(Cl)cc2)CC1)(c1ccccc1)c1ccccc1.Cl [LOPERAMIDE HYDROCHLORIDE] .
Response: 96%

Prompt: What value of Population Normal (%) has been reported for the following compound? O=C(Nc1ccc(-c2ccnc(Nc3ccc(N4CCOCC4)cc3)n2)cc1)[C@@H]1CCCN1
Response: 96%

Prompt: Entry CCc1cccc(CC)c1NC(=O)c1nn(C)c2c1CCc1cnc(Nc3ccc(C(=O)NC4CCN(C)CC4)cc3OC(F)(F)F)nc1-2 : reported Population Normal (%) = ?
Response: 96%

Prompt: Give its Population Normal (%) value. Item: S=C(NCCCc1c[nH]cn1)NCCCN(Cc1ccc(Cl)c(Cl)c1)c1ccc(Br)cn1
Response: 86%

---

Total Cell Count values by entry
Test system: HEK-293T
procedure_details: Multiplex assay against HEK293T
Type: toxicity, cell-based
recorded_conditions: human, 48 h, 10 µM, compound concentration 10 uM, replicate 2
Reply with just the number.

molecule	Total Cell Count
Cc1cc(C)c(S(=O)(=O)N(Cc2ccc(-c3cccc(S(C)(=O)=O)c3)cc2)Cc2ccc(C(F)(F)F)o2)c(C)c1	367
S=C(NCCCc1c[nH]cn1)NCCCN(Cc1ccc(Cl)c(Cl)c1)c1ccc(Br)cn1	230
COCC(=O)NC/C=C/c1ccc2ncnc(Nc3ccc(Oc4ccc(C)nc4)c(C)c3)c2c1 [CP-724714]	291

Please look at the following molecule next.
Prompt: Fill in the blank: the reported Total Cell Count of COc1cc(N2CCN(C)CC2)ccc1Nc1ncc2c(n1)N(C)c1ccccc1C(=O)N2C is ____.
Response: 211
